biological target: Mitogen-activated protein kinase kinase kinase 5 (Homo sapiens, UniProt Q99683); experiment: Competitive inhibition of human ASK1 using MBP as substrate incubated for 10 mins prior to ATP addition measured after 20 mins by Lineweaver-Burk plot analysis
Sequence (Q99683 whole entry): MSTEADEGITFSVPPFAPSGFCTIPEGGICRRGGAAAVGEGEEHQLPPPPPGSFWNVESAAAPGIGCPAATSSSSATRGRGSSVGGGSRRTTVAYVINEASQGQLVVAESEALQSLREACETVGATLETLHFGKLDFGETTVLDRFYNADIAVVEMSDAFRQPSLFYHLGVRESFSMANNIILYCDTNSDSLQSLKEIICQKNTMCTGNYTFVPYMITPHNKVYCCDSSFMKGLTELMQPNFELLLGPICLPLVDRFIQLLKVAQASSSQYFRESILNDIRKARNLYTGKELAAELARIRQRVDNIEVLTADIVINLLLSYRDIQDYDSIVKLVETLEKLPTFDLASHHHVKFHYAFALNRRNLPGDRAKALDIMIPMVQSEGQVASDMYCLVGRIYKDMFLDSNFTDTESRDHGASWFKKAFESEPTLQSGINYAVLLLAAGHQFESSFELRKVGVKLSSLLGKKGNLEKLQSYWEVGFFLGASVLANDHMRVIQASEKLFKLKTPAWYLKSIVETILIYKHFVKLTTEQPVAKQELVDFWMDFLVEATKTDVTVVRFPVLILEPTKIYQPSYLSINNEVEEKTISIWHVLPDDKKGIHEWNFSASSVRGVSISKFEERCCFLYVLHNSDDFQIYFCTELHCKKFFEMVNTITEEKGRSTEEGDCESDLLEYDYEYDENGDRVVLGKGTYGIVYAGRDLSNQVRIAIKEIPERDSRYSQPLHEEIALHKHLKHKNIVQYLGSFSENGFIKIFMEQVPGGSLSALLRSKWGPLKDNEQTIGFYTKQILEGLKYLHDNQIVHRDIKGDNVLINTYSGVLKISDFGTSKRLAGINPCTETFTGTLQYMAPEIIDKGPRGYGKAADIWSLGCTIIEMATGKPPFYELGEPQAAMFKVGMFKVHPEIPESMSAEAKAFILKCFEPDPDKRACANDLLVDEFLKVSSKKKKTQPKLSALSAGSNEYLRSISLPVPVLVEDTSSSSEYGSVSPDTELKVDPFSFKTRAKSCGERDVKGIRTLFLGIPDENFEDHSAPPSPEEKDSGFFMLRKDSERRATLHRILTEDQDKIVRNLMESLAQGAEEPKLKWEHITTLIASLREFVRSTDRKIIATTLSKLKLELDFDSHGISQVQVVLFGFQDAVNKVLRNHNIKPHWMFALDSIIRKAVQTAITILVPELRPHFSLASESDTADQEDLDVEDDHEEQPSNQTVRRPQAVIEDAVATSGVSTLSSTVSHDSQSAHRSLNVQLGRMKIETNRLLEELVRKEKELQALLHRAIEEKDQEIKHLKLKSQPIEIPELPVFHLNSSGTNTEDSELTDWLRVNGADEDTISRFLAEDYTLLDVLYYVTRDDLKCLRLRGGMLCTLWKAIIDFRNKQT
reported-metric: pKi
Please express pKi as -log10 of the molar concentration.

Param item: CC(C(=O)O)N1C(=O)/C(=C/c2ccc(-c3ccc(Cl)c(Cl)c3)o2)SC1=S (stereo unspecified) ; param system: Mitogen-activated protein kinase kinase kinase 5 (Homo sapiens, UniProt Q99683); output pKi: 6.47

* * *

molecular target: Mitogen-activated protein kinase kinase kinase 5 (Homo sapiens, UniProt Q99683); test: Inhibition of human ASK1 using MBP as substrate incubated for 10 mins prior to ATP addition measured after 20 mins by liquid scintillation counting analysis
reported-metric: pIC50
Please express pIC50 as -log10 of the molar concentration.

Completed entries (count: 4):
# compound, pIC50
records = [
    ("O=C(O)CCCCCN1C(=O)/C(=C/c2ccc(-c3ccc(Br)cc3)o2)SC1=S", 6.70),
    ("CCOC(=O)c1ccc(-c2ccc(/C=C3\\SC(=S)N(C(CC(=O)O)C(C)=O)C3=O)o2)cc1 (stereo not given)", 6.10),
    ("O=C(O)CN1C(=O)/C(=C/c2ccc(-c3ccccc3F)o2)SC1=S", 5.52),
    ("CCc1ccc(-c2ccc(/C=C3\\SC(=S)N(C(CC(=O)O)C(=O)O)C3=O)o2)cc1 (stereo not given)", 5.74),
]

Please fill in: pIC50 reported for `O=C(O)CCN1C(=O)/C(=C/c2ccc(-c3cccc(Cl)c3)o2)SC1=S` = 6.00

Please fill in: pIC50 reported for `O=C(O)CCN1C(=O)/C(=C/c2ccc(-c3ccccc3F)o2)SC1=S` = 6.52

Please fill in: pIC50 reported for CCCC(C(=O)O)N1C(=O)/C(=C/c2ccc(-c3ccc([N+](=O)[O-])cc3)o2)SC1=S (stereo not given) = 5.74

* * *

We begin with a simple list: items and their reported IC50.
target: Mitogen-activated protein kinase kinase kinase 5 (Homo sapiens); assay: Inhibition of human ASK1 using MBP as substrate incubated for 10 mins prior to ATP addition measured after 20 mins by liquid scintillation counting analysis
Please state the figure in nM; there is no need to write the unit.

Please fill in: IC50 reported for `O=C(O)CCCN1C(=O)/C(=C/c2ccc(-c3ccccc3Cl)o2)SC1=S` = 300

Please fill in: IC50 reported for CCCC(C(=O)O)N1C(=O)/C(=C/c2ccc(-c3ccc(Br)cc3)o2)SC1=S (stereo unspecified) = 500

Please fill in: IC50 reported for CCC(C(=O)O)N1C(=O)/C(=C/c2ccc(-c3cccc(Cl)c3)o2)SC1=S (stereo unspecified) = 750

Please fill in: IC50 reported for `O=C(O)CN1C(=O)/C(=C/c2ccc(-c3ccccc3Cl)o2)SC1=S` = 1250

* * *

target: Angiopoietin-1 receptor (Homo sapiens); experiment: Inhibition of human Tie2 using TK substrate 2 as substrate assessed as residual activity at 10 uM incubated for 10 mins prior to ATP addition measured after 20 mins by liquid scintillation counting analysis
We begin with a simple list: items and their reported Activity.
Please state the figure in %; there is no need to write the unit.

# molecule, reported-metric, result-value
rows = [
    ("O=C(O)CCCCCN1C(=O)/C(=C/c2ccc(-c3ccc(Br)cc3)o2)SC1=S", "Activity", 46),
    ("O=C(O)CCCN1C(=O)/C(=C/c2ccc(-c3ccccc3Cl)o2)SC1=S", "Activity", 22),
    ("O=C(O)CCN1C(=O)/C(=C/c2ccc(-c3ccccc3F)o2)SC1=S", "Activity", 44),
    ("CC(C(=O)O)N1C(=O)/C(=C/c2ccc(-c3ccc(Cl)c(Cl)c3)o2)SC1=S (stereo not given)", "Activity", 29),
]

Continue with the molecule presented below.
Please fill in: Activity reported for `O=C(O)CCCN1C(=O)/C(=C/c2ccc(-c3ccc(Br)cc3)o2)SC1=S` = 28
